experiment: Agilent ZORBAX 300 SB-C18, 150 × 1 mm, 3.5 µm; A: water + 0.01% heptafluorobutyric acid; B: acetonitrile + 0.01% heptafluorobutyric acid; gradient (min/%B) 0/0 100/90; settings: stereoisomer not certain
OBSERVABLE: LC retention time (min)
Give the number; min is assumed, so skip it.

For orientation, consider the following solved cases.
- COMPOUND: "CN1CCOCC1"
  SCALE_UNIT: "min"
  TEST_VALUE: 3.96
- COMPOUND: "CCNC(=S)NNC(=S)NCc1ccccc1"
  SCALE_UNIT: "min"
  TEST_VALUE: 10.9
- COMPOUND: "Cn1c(=O)n(C)c2cc(N)ccc21"
  SCALE_UNIT: "min"
  TEST_VALUE: 6.8

Requested field: LC retention time. Item: Cc1cc(=O)n(C)c(=O)n1CCCN1CCCC1
7.09

Requested field: LC retention time. Item: CC(CCc1ccccc1)NCC(O)c1ccc(O)c(C(N)=O)c1 (stereo not given)
10

Requested field: LC retention time. Item: O=c1[nH]c(-c2ccccc2)cn1C1CCNCC1
8.03

Requested field: LC retention time. Item: CCN(CC)CCNc1c(N)c(=O)oc2ccccc12
8.37

Requested field: LC retention time. Item: O=C(Nc1ccc(Cc2ccncc2)cc1)c1ccc2ccccc2n1
11.4

Requested field: LC retention time. Item: CN(C)CCCNC(=O)Nc1cccc2ccccc12
8.85

Requested field: LC retention time. Item: c1ccc2c3c([nH]c2c1)CCCCC3
16.6

====

assay: Agilent ZORBAX 300 SB-C18, 150 × 1 mm, 3.5 µm; A: water + 0.01% heptafluorobutyric acid; B: acetonitrile + 0.01% heptafluorobutyric acid; gradient (min/%B) 0/0 100/90; conditions: stereoisomer not certain
OBSERVABLE: LC retention time (min)
Give the number; min is assumed, so skip it.

For orientation, consider the following solved cases.
- COMPOUND: "CCOC(=O)c1ccc2c(c1)C(=O)N(c1cccc3ccccc13)C2=O"
  SCALE_UNIT: "min"
  LC retention time: 16.2
- COMPOUND: "O=C(O)c1cc(-c2ccccc2)nc2ccccc12"
  SCALE_UNIT: "min"
  LC retention time: 11.6
- COMPOUND: "Cc1nn[nH]n1"
  SCALE_UNIT: "min"
  LC retention time: 2.16
- COMPOUND: "CCOC(=O)c1cnc2ccccc2n1"
  SCALE_UNIT: "min"
  LC retention time: 10.7
- COMPOUND: "NC1=NC(=Nc2ccc3c(c2)OCCO3)c2ccccc21"
  SCALE_UNIT: "min"
  LC retention time: 9.45
- COMPOUND: "CC(N)=C1C(=O)C(=O)N(C)C1c1ccccc1 (stereo not given)"
  SCALE_UNIT: "min"
  LC retention time: 8.68

Requested field: LC retention time. Item: CC(C)c1ccc(C=NNC(N)=S)cc1
12.8

Requested field: LC retention time. Item: Cc1cc(C)c(NC(=O)Nc2ccccc2)c(C)n1
8.82

Requested field: LC retention time. Item: O=C(O)C1CCCc2c1[nH]c1ccccc21 (stereo not given)
12.3

Requested field: LC retention time. Item: Cc1cc(C(c2cc(C)c(N)c(C)c2)c2ccco2)cc(C)c1N
12.1

Requested field: LC retention time. Item: c1cc(N2CCCC2)ccn1
7.65

Requested field: LC retention time. Item: CC(C)CC(=O)Nc1cccc(C(=O)O)c1
10.1

Requested field: LC retention time. Item: c1ccc2c(NC3=NCCS3)cccc2c1
9.27

Requested field: LC retention time. Item: CC(=O)C(C)(C)C(C)=NN=C(N)c1ccc(C)cc1
9.26

Requested field: LC retention time. Item: c1cnc(NC2=NCCN2)cn1
6.92
